Measured IC50 by item
# Study system: CYP2D6 (Homo sapiens, UniProt P10635)
# Construct: from tissue; host or cells: human liver microsomes
# Sequence (P10635 whole entry): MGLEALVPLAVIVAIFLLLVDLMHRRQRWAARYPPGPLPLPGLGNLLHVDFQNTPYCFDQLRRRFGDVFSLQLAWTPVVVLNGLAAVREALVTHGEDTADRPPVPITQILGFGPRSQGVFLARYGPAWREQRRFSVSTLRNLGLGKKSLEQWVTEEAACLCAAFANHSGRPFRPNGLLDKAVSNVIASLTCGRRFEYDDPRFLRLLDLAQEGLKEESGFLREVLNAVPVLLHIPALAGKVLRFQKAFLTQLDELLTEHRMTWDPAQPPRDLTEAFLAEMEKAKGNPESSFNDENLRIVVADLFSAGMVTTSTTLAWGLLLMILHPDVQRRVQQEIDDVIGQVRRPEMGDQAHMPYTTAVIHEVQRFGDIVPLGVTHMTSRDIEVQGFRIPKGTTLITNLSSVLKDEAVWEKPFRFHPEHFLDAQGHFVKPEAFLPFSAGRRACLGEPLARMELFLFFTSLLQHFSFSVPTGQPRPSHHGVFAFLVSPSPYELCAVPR
# Method description: biochemical
# Format: in vitro ADME
Recorded endpoint: IC50 (µM)

> print(dat)
                                   molecule  limit.qualifier  quantitative.result
1  Cc1ccc(N2CCC(C)(C)CC2)c(NC(=O)c2ccc(C3CCOCC3)o2)c1                >                   30
2  CC1(O)CCCN(c2ccc(Cl)cc2NC(=O)c2ccc(C3CCOCC3)o2)CC1 (racemic)                =                 0.38
3  CN1CCC2(CCN(c3ccc(C(F)(F)F)cc3NC(=O)c3ccc(C4CCOCC4)o3)CC2)C1                =                    3
4  CC1(CN2CCOCC2)CCN(c2ccc(C(F)(F)F)cc2NC(=O)c2ccc(C3CCOCC3)o2)CC1                =                  8.1
5  CC1(O)CCN(c2ccc(Cl)cc2NC(=O)c2ccccn2)CC1                >                   30
6  COc1ccc(N2CCC(C)(O)CC2)c(NC(=O)c2ccc(C3CCOCC3)o2)c1                =                 19.1
7  O=C(Nc1cc(C(F)(F)F)ccc1N1CCC(O)C1)c1ccc(C2CCOCC2)o1 (racemic)                =                 11.5
8  CC1(CO)CCN(c2ccc(C(F)(F)F)cc2NC(=O)c2ccc(C3CCOCC3)o2)CC1                >                   30

----------
# Study system: CYP2D6 (Homo sapiens)
# Construct: from tissue; host or cells: human liver microsomes
# Method description: biochemical
# Type: in vitro ADME
Lab note - cut at 20 µM for IC50: satisfied if strictly below, not satisfied if not.

> print(dat)
                                    compound          group
 1  Cc1ccc(N2CCC(C)(C(=O)N(C)C)CC2)c(NC(=O)c2ccc(C3CCOCC3)o2)c1  not satisfied
 2  CN(C)CC1(C)CCN(c2ccc(C3CC3)cc2NC(=O)c2ccc(C3CCOCC3)o2)CC1  not satisfied
 3  COc1ccc(N2CCC(C)(O)CC2)c(NC(=O)c2ccc(-c3ccncc3)o2)c1      satisfied
 4  CC1(O)CCCN(c2ccc(C3CC3)cc2NC(=O)c2ccc(C3CCOCC3)o2)CC1 (racemic)      satisfied
 5  C[C@@]1(O)CCN(c2ccc(C(F)(F)F)cc2NC(=O)c2ccc(C3CCOCC3)o2)C1  not satisfied
 6  CN(C)CC1(C)CCN(c2ccc(C(F)(F)F)cc2NC(=O)c2ccc(C3CCOCC3)o2)CC1      satisfied
 7  CN(C)CC1(C)CCN(c2ccc(C(F)(F)F)cc2NC(=O)c2ccc(-c3ccncc3)o2)CC1      satisfied
 8  COC1(C)CCN(c2ccc(C(F)(F)F)cc2NC(=O)c2ccc(C3CCOCC3)o2)CC1      satisfied
 9  CN(C)C(=O)C1(C)CCN(c2ccc(C(F)(F)F)cc2NC(=O)c2ccc(C3CCOCC3)o2)CC1      satisfied
10  CC1(O)CCN(c2ccc(C(F)(F)F)cc2NC(=O)c2ccc(C3CCOCC3)o2)C1 (racemic)      satisfied

Measured values drawn from patent US11420969B2 for this set.
